Test: Inhibition of murine Protein kinase A
Parameters: species or system Mus musculus
Readout name: pIC50
Scale: pIC50 equals -log10([C]), with [C] in mol/L.

Input line: Endpoint output: pIC50 of N=C(N)NCCC[C@H](NC(=O)[C@H](CCCNC(=N)N)NC(=O)[C@H](CCCNC(=N)N)NC(=O)[C@H](CCCNC(=N)N)NC(=O)[C@H](CCCNC(=N)N)NC(=O)[C@H](CCCNC(=N)N)NC(=O)CCCNC(=O)[C@H]1OC(n2cnc3c(N)ncnc32)[C@H](O)[C@@H]1O)C(=O)O (stereo partly specified) . Value?
Output line: 5.89

---

Molecular target: CaM kinase I alpha (Zea mays, UniProt O04417)
Sequence (O04417 whole entry): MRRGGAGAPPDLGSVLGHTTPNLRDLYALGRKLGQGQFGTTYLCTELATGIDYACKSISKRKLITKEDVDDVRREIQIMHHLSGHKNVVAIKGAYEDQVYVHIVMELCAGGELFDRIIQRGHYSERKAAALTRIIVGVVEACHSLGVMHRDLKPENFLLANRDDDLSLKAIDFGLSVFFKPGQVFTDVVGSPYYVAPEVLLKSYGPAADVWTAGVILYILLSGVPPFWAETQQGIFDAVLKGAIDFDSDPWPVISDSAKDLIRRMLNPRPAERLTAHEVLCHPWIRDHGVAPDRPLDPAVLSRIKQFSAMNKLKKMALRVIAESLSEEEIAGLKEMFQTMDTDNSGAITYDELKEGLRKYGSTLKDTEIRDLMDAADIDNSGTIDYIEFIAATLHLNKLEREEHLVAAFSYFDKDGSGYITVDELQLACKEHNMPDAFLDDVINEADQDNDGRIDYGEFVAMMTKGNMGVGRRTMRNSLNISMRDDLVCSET
Assay: Inhibition of Calcium-dependent protein kinase 1 (CDPK-1) from maize seedlings
Residues, ends and D or L forms follow the SMILES beside them. *: point of attachment. X1 = Nc1ncnc2c1ncn2C1O[C@H](C(=O)*)[C@@H](O)[C@H]1O; Ahx = NCCCCCC(=O)O
Listing: IC50 of selected compounds
Numbers only; they are read as µM.

[[record]]
compound = "N=C(N)NCCC[C@H](NC(=O)[C@H](CCCNC(=N)N)NC(=O)[C@H](CCCNC(=N)N)NC(=O)[C@H](CCCNC(=N)N)NC(=O)CCCCCNC(=O)[C@H]1OC(n2cnc3c(N)ncnc32)[C@H](O)[C@@H]1O)C(=O)O (some centres not stated) ({X1-Ahx}-RRRR-OH)"
readout_name = "IC50"
value_reported = 52


Read the next record carefully.
Input line: Give its IC50 value. Item: N=C(N)NCCC[C@H](NC(=O)[C@H](CCCNC(=N)N)NC(=O)[C@H](CCCNC(=N)N)NC(=O)[C@H](CCCNC(=N)N)NC(=O)[C@H](CCCNC(=N)N)NC(=O)[C@H](CCCNC(=N)N)NC(=O)CNC(=O)[C@H]1OC(n2cnc3c(N)ncnc32)[C@H](O)[C@@H]1O)C(=O)O (some centres not stated)
Output line: 67

Where these numbers come from: ChEMBL document CHEMBL1131721
